- TESTED_TARGET: D(1A) dopamine receptor (Homo sapiens, UniProt P21728)
- Sequence (P21728 whole entry): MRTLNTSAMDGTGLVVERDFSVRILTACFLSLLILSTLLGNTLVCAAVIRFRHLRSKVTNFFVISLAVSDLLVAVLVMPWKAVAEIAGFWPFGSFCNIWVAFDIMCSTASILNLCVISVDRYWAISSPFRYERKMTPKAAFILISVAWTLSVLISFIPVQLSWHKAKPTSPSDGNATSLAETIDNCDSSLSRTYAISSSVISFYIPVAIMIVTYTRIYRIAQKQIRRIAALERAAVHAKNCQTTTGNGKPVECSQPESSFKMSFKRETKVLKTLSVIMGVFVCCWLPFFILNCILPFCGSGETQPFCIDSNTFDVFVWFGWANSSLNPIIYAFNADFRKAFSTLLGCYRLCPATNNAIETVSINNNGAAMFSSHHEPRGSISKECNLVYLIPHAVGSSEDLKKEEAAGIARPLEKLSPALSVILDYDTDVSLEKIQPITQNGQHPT
- EXPERIMENT_NOTES: Displacement of [3H]SCH23390 from human dopamine D1 receptor expressed in HEK293 cells by scintillation counting analysis
MEASURE: Ki (nM)
The figure you give is taken to be in nM; do not add the unit.

Use the examples below as a reference point.
CN1CCc2ccc(Cc3ccc(O)c4ccccc34)c3c2[C@H]1Cc1ccc(O)c(O)c1-3    437
CN1CCc2ccc(Cc3ccccc3)c3c2[C@H]1Cc1ccc(O)c(O)c1-3    168
Cc1ccc2c3c1-c1c(ccc(O)c1O)C[C@H]3N(C)CC2    187
CN1CCc2ccc(CO)c3c2[C@H]1Cc1ccc(O)c(O)c1-3    980
CN(C)c1ccc(Cc2ccc3c4c2-c2c(ccc(O)c2O)C[C@H]4N(C)CC3)cc1    135

In: Sample `CN1CCc2ccc(Cc3ccc(O)cc3)c3c2[C@H]1Cc1ccc(O)c(O)c1-3` — what was its Ki?
Out: 40
